Values from ChEMBL document CHEMBL1138149

# measured-target: Melanocortin receptor 3 (Homo sapiens, UniProt P41968)
# Sequence (P41968 whole entry): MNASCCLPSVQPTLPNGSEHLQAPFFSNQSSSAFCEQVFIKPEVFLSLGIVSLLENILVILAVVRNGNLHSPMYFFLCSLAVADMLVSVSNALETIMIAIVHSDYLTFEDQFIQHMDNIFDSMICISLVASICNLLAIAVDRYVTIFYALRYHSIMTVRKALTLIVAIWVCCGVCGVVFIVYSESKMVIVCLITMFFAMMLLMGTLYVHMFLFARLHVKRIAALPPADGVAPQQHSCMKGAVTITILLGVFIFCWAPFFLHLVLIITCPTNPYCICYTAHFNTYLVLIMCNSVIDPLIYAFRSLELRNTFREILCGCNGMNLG
# assay-notes: Activity against human MC3R by cAMP accumulation
parameter: EC50 (µM)

Completed entries (count: 6):
O=C(N[C@H](Cc1ccc(Cl)cc1)C(=O)N1CCC(CN2C(=O)OCC23CC3)(C2CCCCC2)CC1)[C@H]1Cc2ccccc2CN1    0.99
CC1(C)CCN(CC2(C3CCCCC3)CCN(C(=O)[C@@H](Cc3ccc(Cl)cc3)NC(=O)[C@H]3Cc4ccccc4CN3)CC2)S1(=O)=O    0.45
CC(C)N(CC1(C2CCCCC2)CCN(C(=O)[C@@H](Cc2ccc(Cl)cc2)NC(=O)[C@H]2Cc3ccccc3CN2)CC1)S(C)(=O)=O    0.59
O=C(N[C@H](Cc1ccc(Cl)cc1)C(=O)N1CCC(CN2CCNC2=O)(C2CCCCC2)CC1)[C@H]1Cc2ccccc2CN1    0.88
C[C@H]1COC(=O)N1CC1(C2CCCCC2)CCN(C(=O)[C@@H](Cc2ccc(Cl)cc2)NC(=O)[C@H]2Cc3ccccc3CN2)CC1    0.64
CCOC(=O)N(CC1(C2CCCCC2)CCN(C(=O)[C@@H](Cc2ccc(Cl)cc2)NC(=O)[C@H]2Cc3ccccc3CN2)CC1)C(C)C    0.55

1. O=C(N[C@H](Cc1ccc(Cl)cc1)C(=O)N1CCC(CN2CCCS2(=O)=O)(C2CCCCC2)CC1)[C@H]1Cc2ccccc2CN1
2. CN1CCN(CC2(C3CCCCC3)CCN(C(=O)[C@@H](Cc3ccc(Cl)cc3)NC(=O)[C@H]3Cc4ccccc4CN3)CC2)C1=O
3. C[C@@H]1COC(=O)N1CC1(C2CCCCC2)CCN(C(=O)[C@@H](Cc2ccc(Cl)cc2)NC(=O)[C@H]2Cc3ccccc3CN2)CC1
Q: Task for the reader: rank each entry by its EC50, from the minimum upward. Return the labels ranked in the requested order, please.
A: 3, 1, 2
(3: 0.37 µM, 1: 0.54 µM, 2: 1.2 µM)

----------
# measured-target: Melanocortin receptor 3 (Homo sapiens, UniProt P41968)
# assay-notes: Displacement of [125I]NDP-alpha-MSH from human MC3R expressed in CHO cells
parameter: IC50 (nM)

O=C(N[C@H](Cc1ccc(Cl)cc1)C(=O)N1CCC(CN2CCOC2=O)(C2CCCCC2)CC1)[C@H]1Cc2ccccc2CN1    460
CN1CCN(CC2(C3CCCCC3)CCN(C(=O)[C@@H](Cc3ccc(Cl)cc3)NC(=O)[C@H]3Cc4ccccc4CN3)CC2)C1=O    660
CCOC(=O)N(CC1(C2CCCCC2)CCN(C(=O)[C@@H](Cc2ccc(Cl)cc2)NC(=O)[C@H]2Cc3ccccc3CN2)CC1)C(C)C    630

a. C[C@H]1COC(=O)N1CC1(C2CCCCC2)CCN(C(=O)[C@@H](Cc2ccc(Cl)cc2)NC(=O)[C@H]2Cc3ccccc3CN2)CC1
b. O=C(N[C@H](Cc1ccc(Cl)cc1)C(=O)N1CCC(CN2CCNC2=O)(C2CCCCC2)CC1)[C@H]1Cc2ccccc2CN1
c. C[C@@H]1COC(=O)N1CC1(C2CCCCC2)CCN(C(=O)[C@@H](Cc2ccc(Cl)cc2)NC(=O)[C@H]2Cc3ccccc3CN2)CC1
d. O=C(N[C@H](Cc1ccc(Cl)cc1)C(=O)N1CCC(CN2CCCS2(=O)=O)(C2CCCCC2)CC1)[C@H]1Cc2ccccc2CN1
Q: Order each entry by recorded IC50, climbing from the minimum. List the labels in the requested order.
A: c, d, b, a

----------
# measured-target: Melanocortin receptor 3 (Homo sapiens)
# assay-notes: Displacement of [125I]NDP-alpha-MSH from human MC3R expressed in CHO cells
parameter: IC50 (nM)

a. CC1(C)CCN(CC2(C3CCCCC3)CCN(C(=O)[C@@H](Cc3ccc(Cl)cc3)NC(=O)[C@H]3Cc4ccccc4CN3)CC2)S1(=O)=O
b. O=C(N[C@H](Cc1ccc(Cl)cc1)C(=O)N1CCC(CN2C(=O)OCC23CCC3)(C2CCCCC2)CC1)[C@H]1Cc2ccccc2CN1
Q: Compare a and b by numeric IC50 and name the larger one. Use the label to indicate which entry you chose.
A: a
(a: 760 nM, b: 400 nM)

A. O=C(N[C@H](Cc1ccc(Cl)cc1)C(=O)N1CCC(CN2C(=O)OCC23CC3)(C2CCCCC2)CC1)[C@H]1Cc2ccccc2CN1
B. CC1(C)COC(=O)N1CC1(C2CCCCC2)CCN(C(=O)[C@@H](Cc2ccc(Cl)cc2)NC(=O)[C@H]2Cc3ccccc3CN2)CC1
Q: // which entry reports the smaller IC50, A or B ? Pick one; state its label.
A: B
(B: 230 nM, A: 490 nM)

----------
# measured-target: Melanocortin receptor 4 (Homo sapiens, UniProt P32245)
# Sequence (P32245 whole entry): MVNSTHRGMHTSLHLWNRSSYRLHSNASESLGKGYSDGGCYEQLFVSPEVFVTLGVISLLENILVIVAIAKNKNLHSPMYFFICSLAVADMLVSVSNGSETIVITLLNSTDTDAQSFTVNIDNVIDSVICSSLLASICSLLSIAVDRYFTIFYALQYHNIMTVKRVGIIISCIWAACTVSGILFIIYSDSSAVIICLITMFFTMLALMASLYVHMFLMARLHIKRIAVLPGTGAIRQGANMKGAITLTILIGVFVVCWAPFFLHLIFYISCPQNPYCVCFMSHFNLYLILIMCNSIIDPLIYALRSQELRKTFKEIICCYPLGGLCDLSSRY
# assay-notes: Activity against human MC4R by percentage of cAMP accumulation at 10 uM
# Format: functional
parameter: %max (%)

O=C(N[C@H](Cc1ccc(Cl)cc1)C(=O)N1CCC(CN2CCNC2=O)(C2CCCCC2)CC1)[C@H]1Cc2ccccc2CN1    82
O=C(N[C@H](Cc1ccc(Cl)cc1)C(=O)N1CCC(CN2C(=O)OCC23CCC3)(C2CCCCC2)CC1)[C@H]1Cc2ccccc2CN1    65
CCOC(=O)N(CC1(C2CCCCC2)CCN(C(=O)[C@@H](Cc2ccc(Cl)cc2)NC(=O)[C@H]2Cc3ccccc3CN2)CC1)C(C)C    95
CC1(C)COC(=O)N1CC1(C2CCCCC2)CCN(C(=O)[C@@H](Cc2ccc(Cl)cc2)NC(=O)[C@H]2Cc3ccccc3CN2)CC1    82
CN1CCN(CC2(C3CCCCC3)CCN(C(=O)[C@@H](Cc3ccc(Cl)cc3)NC(=O)[C@H]3Cc4ccccc4CN3)CC2)C1=O    88
O=C(N[C@H](Cc1ccc(Cl)cc1)C(=O)N1CCC(CN2CCCS2(=O)=O)(C2CCCCC2)CC1)[C@H]1Cc2ccccc2CN1    67
CC1(C)CCN(CC2(C3CCCCC3)CCN(C(=O)[C@@H](Cc3ccc(Cl)cc3)NC(=O)[C@H]3Cc4ccccc4CN3)CC2)S1(=O)=O    74
CC(C)N(CC1(C2CCCCC2)CCN(C(=O)[C@@H](Cc2ccc(Cl)cc2)NC(=O)[C@H]2Cc3ccccc3CN2)CC1)S(C)(=O)=O    86

----------
# measured-target: Melanocortin receptor 3 (Homo sapiens)
# assay-notes: Activity against human MC3R by percentage of cAMP accumulation at 10 uM
# Format: functional
parameter: %max (%)

Previously resolved entries follow.
C[C@@H]1COC(=O)N1CC1(C2CCCCC2)CCN(C(=O)[C@@H](Cc2ccc(Cl)cc2)NC(=O)[C@H]2Cc3ccccc3CN2)CC1    15
CCOC(=O)N(CC1(C2CCCCC2)CCN(C(=O)[C@@H](Cc2ccc(Cl)cc2)NC(=O)[C@H]2Cc3ccccc3CN2)CC1)C(C)C    37

A. O=C(N[C@H](Cc1ccc(Cl)cc1)C(=O)N1CCC(Cn2cncn2)(C2CCCCC2)CC1)[C@H]1Cc2ccccc2CN1
B. O=C(N[C@H](Cc1ccc(Cl)cc1)C(=O)N1CCC(CN2CCCS2(=O)=O)(C2CCCCC2)CC1)[C@H]1Cc2ccccc2CN1
C. O=C(N[C@H](Cc1ccc(Cl)cc1)C(=O)N1CCC(CN2C(=O)OCC23CCC3)(C2CCCCC2)CC1)[C@H]1Cc2ccccc2CN1
D. O=C(N[C@H](Cc1ccc(Cl)cc1)C(=O)N1CCC(CN2CCOC2=O)(C2CCCCC2)CC1)[C@H]1Cc2ccccc2CN1
Q: # ascending order, key=%max Write the labels in rank order as requested.
A: C, D, B, A

----------
# measured-target: Melanocyte-stimulating hormone receptor (Homo sapiens, UniProt Q01726)
# Sequence (Q01726 whole entry): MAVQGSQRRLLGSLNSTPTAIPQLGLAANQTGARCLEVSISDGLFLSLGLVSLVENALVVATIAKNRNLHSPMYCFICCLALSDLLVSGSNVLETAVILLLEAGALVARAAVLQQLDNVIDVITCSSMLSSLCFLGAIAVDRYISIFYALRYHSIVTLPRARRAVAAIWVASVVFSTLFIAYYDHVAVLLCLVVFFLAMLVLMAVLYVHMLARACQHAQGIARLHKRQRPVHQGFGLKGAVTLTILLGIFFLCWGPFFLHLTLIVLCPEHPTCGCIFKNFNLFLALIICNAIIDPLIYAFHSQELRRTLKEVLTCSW
# assay-notes: Displacement of [125I]NDP-alpha-MSH from human MC1BR expressed in CHO cells
parameter: IC50 (nM)

Examples with answers:
C[C@@H]1COC(=O)N1CC1(C2CCCCC2)CCN(C(=O)[C@@H](Cc2ccc(Cl)cc2)NC(=O)[C@H]2Cc3ccccc3CN2)CC1    1700
O=C(N[C@H](Cc1ccc(Cl)cc1)C(=O)N1CCC(CN2CCNC2=O)(C2CCCCC2)CC1)[C@H]1Cc2ccccc2CN1    1100
CC1(C)COC(=O)N1CC1(C2CCCCC2)CCN(C(=O)[C@@H](Cc2ccc(Cl)cc2)NC(=O)[C@H]2Cc3ccccc3CN2)CC1    1100

I. C[C@H]1COC(=O)N1CC1(C2CCCCC2)CCN(C(=O)[C@@H](Cc2ccc(Cl)cc2)NC(=O)[C@H]2Cc3ccccc3CN2)CC1
II. CC1(C)CCN(CC2(C3CCCCC3)CCN(C(=O)[C@@H](Cc3ccc(Cl)cc3)NC(=O)[C@H]3Cc4ccccc4CN3)CC2)S1(=O)=O
Q: Could you tell me which of these two has the smaller IC50 figure? First: I Second: II Could you answer with the label of the item you picked?
A: II
(II: 1200 nM, I: 2400 nM)

A. O=C(N[C@H](Cc1ccc(Cl)cc1)C(=O)N1CCC(CN2C(=O)OCC23CCC3)(C2CCCCC2)CC1)[C@H]1Cc2ccccc2CN1
B. CCOC(=O)N(CC1(C2CCCCC2)CCN(C(=O)[C@@H](Cc2ccc(Cl)cc2)NC(=O)[C@H]2Cc3ccccc3CN2)CC1)C(C)C
Q: Exercise: compare A and B ; which one has the greater IC50? Give the chosen item's label as your response.
A: A
(A: 2100 nM, B: 1100 nM)
